Where do these numbers come from? They come from patent US11566007B2.

Form field: pIC50 (one value per entry).
- TARGET DESC: KRAS G13D (Homo sapiens (Human), UniProt P01116+P62937, G13D)
- Sequence (P01116-2 other isoform, or with tags, fused parts or gaps G13D): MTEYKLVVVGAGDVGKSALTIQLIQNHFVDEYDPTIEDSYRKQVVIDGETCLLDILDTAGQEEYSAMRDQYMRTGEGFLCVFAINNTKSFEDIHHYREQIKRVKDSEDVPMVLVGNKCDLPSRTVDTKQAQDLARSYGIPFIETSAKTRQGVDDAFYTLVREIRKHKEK
- Sequence (P62937 whole entry): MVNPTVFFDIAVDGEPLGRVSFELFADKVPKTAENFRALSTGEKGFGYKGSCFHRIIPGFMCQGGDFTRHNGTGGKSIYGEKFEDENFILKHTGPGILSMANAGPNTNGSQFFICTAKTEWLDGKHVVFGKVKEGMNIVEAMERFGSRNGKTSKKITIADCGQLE
- PROCEDURE TEXT: Ras-Raf (BRAF RBD) disruption / FRET / MOA assay, KRAS G13D
- Assay type: biochemical
- COND: read-out: IC50* KRAS G13D FRET data
pIC50: −log10 of the molar value.

COMPOUND: C=CC(=O)N(C)[C@H]1CN(C(=O)N(C)[C@H](C(=O)N[C@H]2Cc3nc(cs3)-c3ccc4c(c3)c(c(-c3cccnc3[C@H](C)OC)n4CC)CC(C)(C)COC(=O)[C@@H]3CCCN(N3)C2=O)C(C)C)C[C@H]1F (atropisomer, axis not shown)
TARGET DESC: KRAS G13D (Homo sapiens (Human), UniProt P01116+P62937, G13D)
pIC50: 6.00 to 7.00

COMPOUND: C=CC(=O)N1C[C@H](C)N(C(=O)N(C)[C@H](C(=O)N[C@H]2Cc3nc(cs3)-c3ccc4c(c3)c(c(-c3cccnc3[C@H](C)OC)n4CC)CC(C)(C)COC(=O)[C@@H]3CCCN(N3)C2=O)C(C)C)C[C@H]1C (atropisomer, axis not shown)
TARGET DESC: KRAS G13D (Homo sapiens (Human), UniProt P01116+P62937, G13D)
pIC50: 5.00 to 6.00

COMPOUND: C=CC(=O)N1CC[C@H](C(=O)N(C)[C@H](C(=O)N[C@H]2Cc3nc(cs3)-c3ccc4c(n3)c(c(-c3cccnc3[C@H](C)OC)n4CC)CC(C)(C)COC(=O)[C@@H]3CCCN(N3)C2=O)C(C)C)C1
TARGET DESC: KRAS G13D (Homo sapiens (Human), UniProt P01116+P62937, G13D)
pIC50: < 5.00

COMPOUND: CCn1c(-c2cccnc2[C@H](C)OC)c2c3cc(ccc31)N1CCO[C@@](C)(C[C@H](NC(=O)[C@H](C(C)C)N(C)C(=O)C3(F)CCN(C(=O)C#CC(C)(C)N(C)C)CC3)C(=O)N3CCC[C@H](N3)C(=O)OCC(C)(C)C2)C1
TARGET DESC: KRAS G13D (Homo sapiens (Human), UniProt P01116+P62937, G13D)
pIC50: 5.00 to 6.00

COMPOUND: C=CC(=O)N1CC[C@H](C(=O)N(C)[C@H](C(=O)N[C@H]2CC3=CCCN(C3)c3ccc4c(c3)c(c(-c3cccnc3[C@H](C)OC)n4CC)CC(C)(C)COC(=O)[C@@H]3CCCN(N3)C2=O)C(C)C)C1 (atropisomer, axis not shown)
TARGET DESC: KRAS G13D (Homo sapiens (Human), UniProt P01116+P62937, G13D)
pIC50: < 5.00

COMPOUND: C=CC(=O)N1CCC2(CC1)CCN([C@H](C(=O)N[C@H]1Cc3cc(O)cc(c3)-c3ccc4c(c3)c(c(-c3cccnc3[C@H](C)OC)n4CC)CC(C)(C)COC(=O)[C@@H]3CCCN(N3)C1=O)C(C)C)C2=O (atropisomer, axis not shown)
TARGET DESC: KRAS G13D (Homo sapiens (Human), UniProt P01116+P62937, G13D)
pIC50: 7.00 to 8.00

COMPOUND: CCn1c(-c2cnccc2COC)c2c3cc(ccc31)-c1ccnc(c1)C[C@H](NC(=O)[C@H](C(C)C)N(C)C(=O)[C@H]1CCN(C(=O)C#CCN(C)C)C1)C(=O)N1CCC[C@H](N1)C(=O)OCC(C)(C)C2
TARGET DESC: KRAS G13D (Homo sapiens (Human), UniProt P01116+P62937, G13D)
pIC50: 5.00 to 6.00

COMPOUND: C=CC(=O)N1CCC(C(=O)N(C)[C@H](C(=O)N[C@H]2Cc3cc(O)cc(c3)-c3ccc4c(c3)c(c(-c3cccnc3[C@H](C)OC)n4CC)CC(C)(C)COC(=O)[C@@H]3CCCN(N3)C2=O)C(C)C)CC1 (atropisomer, axis not shown)
TARGET DESC: KRAS G13D (Homo sapiens (Human), UniProt P01116+P62937, G13D)
pIC50: 7.00 to 8.00
